Each entry below carries its recorded Ki.
MEASURED ON: α1B Human Adrenergic Receptor (Homo sapiens)
Construct: The entire coding region of α1B (1563 bp); expressed in transfected cells
PROTOCOL SUMMARY: Radioligand binding, [3H]prazosin, cloned human α1B adrenergic receptor
MEASUREMENT SETUP: cloned human α1B receptor, LM(tk-) cell membranes, read-out: PKi alpha-1 1b (converted)
Reply numerically in nM, unit not repeated.

// below: answered compounds
COMPOUND	MEASURED ON	UNIT TEXT	Ki
COC(=O)C1=C(C)NC(C)=C(C(=O)NCCCN2CCC(c3ccccc3)CC2)C1c1ccc2c(c1)OCO2 (stereo not drawn)	α1B Human Adrenergic Receptor (Homo sapiens)	nM	69.2
COC(=O)C1(c2ccccc2)CCN(CCCNC(=O)C2=C(COCCN)NC(C)=C(C(C)=O)C2c2ccc(F)cc2)CC1 (stereo not drawn)	α1B Human Adrenergic Receptor (Homo sapiens)	nM	355

Okay, now this compound:
Qu. # lookup: Ki of CCOC(=O)C1(c2ccccc2)CCN(CCCNC(=O)C2=C(COCC(F)(F)F)NC(C)=C(C(N)=O)C2c2ccc([N+](=O)[O-])cc2)CC1 (stereo not drawn)
Ans. 759

---

MEASURED ON: α1B Human Adrenergic Receptor (Homo sapiens, UniProt P35368)
Construct: The entire coding region of α1B (1563 bp); expressed in transfected cells
PROTOCOL SUMMARY: Radioligand binding, [3H]prazosin, cloned human α1B adrenergic receptor
MEASUREMENT SETUP: cloned human receptor in LM(tk-) cell membranes, SEM and n in lines below, read-out: pKi alpha-1 1b (converted)
Structures can show the parent of a compound that is named as a salt.
Each entry below carries its recorded Ki.
Reply numerically in nM, unit not repeated.

// below: answered molecules
MOLECULE	MEASURED RESULT
CCC1=C(C(=O)NC2CCN(Cc3ccccc3)CC2)C(c2ccc([N+](=O)[O-])cc2)C(C(=O)OC)=C(C)N1 (stereo not shown) [Example 75, hydrochloride]	3890
COC(=O)C1=C(C)NC(C)=C(C(=O)OCCCN2CCCCC2)C1c1ccc([N+](=O)[O-])cc1 (stereo not shown) [Example 50]	3020
COC(=O)C1=C(C)NC(c2ccoc2)=C(C(=O)NCCCN2CCC(c3ccccc3)CC2)C1c1ccc([N+](=O)[O-])cc1 (stereo not shown) [Example 65, hydrochloride hydrate]	57.5
COC(=O)C1=C(C)NC(C)=C(C(=O)NCCCN2CCc3ccccc3C2)C1c1ccc([N+](=O)[O-])cc1 (stereo not shown) [Example 59, hydrochloride hydrate]	389

Qu. # lookup: Ki of COC(=O)C1=C(C)NC(C)=C(C(=O)NCCCN2CCC(c3ccccc3)(c3ccccc3)CC2)C1c1ccc(OC)cc1 (stereo not shown) [Example 21]
Ans. 204

Qu. # lookup: Ki of COC(=O)C1=C(C)NC(C)=C(C(=O)NCCCN2CCC(c3ccccc3)(c3ccccc3)CC2)C1c1ccc(-c2ccccc2)cc1 (stereo not shown) [Example 7]
Ans. 288

Qu. # lookup: Ki of COC(=O)C1=C(C)NC(C)=C(C(=O)NCCCN2CCC(c3ccccc3)(c3ccccc3)CC2)C1c1ccc(F)cc1 (stereo not shown) [Example 20]
Ans. 120

Qu. # lookup: Ki of CCC1=C(C(=O)NCCCN2CCC(c3ccccc3)(c3ccccc3)CC2)C(c2ccc([N+](=O)[O-])cc2)C(C(=O)OC)=C(C)N1 (stereo not shown) [Example 73]
Ans. 148

Qu. # lookup: Ki of COC(=O)C1=C(C)NC(C)=C(C(=O)NCCCN2CCc3cc(OC)c(OC)cc3C2)C1c1ccc([N+](=O)[O-])cc1 (stereo not shown) [Example 57, hydrochloride hydrate]
Ans. 1230

Qu. # lookup: Ki of COC(=O)C1=C(C)NC(C)=C(C(=O)NCCCN2CCC(c3ccccc3)(c3ccccc3)CC2)C1c1ccc(Cl)c([N+](=O)[O-])c1 (stereo not shown) [Example 16]
Ans. 174

Qu. # lookup: Ki of COC(=O)C1=C(C)NC(C)=C(C(=O)NCCCN2CCC(c3ccccc3)(c3ccccc3)CC2)C1c1ccc(C(C)C)cc1 (stereo not shown) [Example 18]
Ans. 174

Qu. # lookup: Ki of COC(=O)C1=C(C)NC(C)=C(C(=O)NCCCN2CCC(c3ccccc3)CC2)C1c1ccncc1 (stereo not shown) [Example 32]
Ans. 302

Qu. # lookup: Ki of COC(=O)C1=C(C)NC(C)=C(C(=O)NCCCN2CCC(c3ccccc3)CC2)C1c1ccc([N+](=O)[O-])cc1 (single isomer, unassigned; (+)) [(+)-45, hydrochloride hemihydrate]
Ans. 57.5

---

MEASURED ON: α2C receptor (Homo sapiens)
Construct: host or cells: LM(tk-) cells, line L-α2C
Sequence (P18825 whole entry): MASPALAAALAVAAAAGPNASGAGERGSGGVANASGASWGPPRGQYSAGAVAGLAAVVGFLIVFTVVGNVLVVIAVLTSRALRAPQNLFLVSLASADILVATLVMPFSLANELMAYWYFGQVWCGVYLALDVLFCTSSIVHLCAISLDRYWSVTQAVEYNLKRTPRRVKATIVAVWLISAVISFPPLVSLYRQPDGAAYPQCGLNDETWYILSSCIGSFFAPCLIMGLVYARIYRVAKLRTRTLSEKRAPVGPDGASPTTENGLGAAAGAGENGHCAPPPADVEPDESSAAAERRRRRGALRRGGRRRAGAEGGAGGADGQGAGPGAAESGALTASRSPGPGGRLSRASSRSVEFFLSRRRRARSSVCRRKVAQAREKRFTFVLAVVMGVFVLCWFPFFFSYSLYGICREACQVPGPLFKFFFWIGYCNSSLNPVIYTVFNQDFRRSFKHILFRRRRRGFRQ
PROTOCOL SUMMARY: Competition binding, [3H]rauwolscine, human α2C receptor
MEASUREMENT SETUP: [3H]rauwolscine, human α2C receptor, LM(tk−) cells; read-out: pKi alpha-2 2c (converted)
Where a name gives a salt, the structure may show the parent alone.
Each entry below carries its recorded log10 Ki.
In our notation, the value equals log10 of Ki in nM.

// below: answered compounds
COMPOUND	log10 Ki
CCC1=C(C(=O)OCCC#N)C(c2ccc([N+](=O)[O-])cc2)C(C(=O)NCCCN2CCC(c3ccccc3)(c3ccccc3)CC2)=C(COC)N1 (centres unmarked)	2.53
CNC(=O)C1=C(C)NC(C)=C(C(=O)NCCCN2CCC(O)(c3ccccc3)CC2)C1c1ccc([N+](=O)[O-])cc1 (centres unmarked)	2.74
CC1=C(C(=O)NCCCN2CCC(c3ccccc3)(c3ccccc3)CC2)C(c2ccc([N+](=O)[O-])cc2)C(C(=O)OCCC#N)=C(C)N1 (centres unmarked)	2.19
CC1=C(C(=O)NCCCN2CCC(c3ccccc3)(c3ccccc3)CC2)C(c2ccc([N+](=O)[O-])cc2)C(C(=O)NC(C)C)=C(C)N1 (centres unmarked)	2.34

Qu. # lookup: log10 Ki of CCC1=C(C(N)=O)C(c2ccc([N+](=O)[O-])cc2)C(C(=O)NCCCN2CCC(O)(c3ccccc3)CC2)=C(CC)N1 (centres unmarked) [Example 100, hydrochloride hydrate]
Ans. 3.25

---

MEASURED ON: L-type calcium channel (Rattus norvegicus)
Construct: membrane fragments of rat cardiac muscle; from tissue; host or cells: rat cardiac muscle membranes
Sequence (P22002 whole entry, other chains not shown, the tested form may be a part): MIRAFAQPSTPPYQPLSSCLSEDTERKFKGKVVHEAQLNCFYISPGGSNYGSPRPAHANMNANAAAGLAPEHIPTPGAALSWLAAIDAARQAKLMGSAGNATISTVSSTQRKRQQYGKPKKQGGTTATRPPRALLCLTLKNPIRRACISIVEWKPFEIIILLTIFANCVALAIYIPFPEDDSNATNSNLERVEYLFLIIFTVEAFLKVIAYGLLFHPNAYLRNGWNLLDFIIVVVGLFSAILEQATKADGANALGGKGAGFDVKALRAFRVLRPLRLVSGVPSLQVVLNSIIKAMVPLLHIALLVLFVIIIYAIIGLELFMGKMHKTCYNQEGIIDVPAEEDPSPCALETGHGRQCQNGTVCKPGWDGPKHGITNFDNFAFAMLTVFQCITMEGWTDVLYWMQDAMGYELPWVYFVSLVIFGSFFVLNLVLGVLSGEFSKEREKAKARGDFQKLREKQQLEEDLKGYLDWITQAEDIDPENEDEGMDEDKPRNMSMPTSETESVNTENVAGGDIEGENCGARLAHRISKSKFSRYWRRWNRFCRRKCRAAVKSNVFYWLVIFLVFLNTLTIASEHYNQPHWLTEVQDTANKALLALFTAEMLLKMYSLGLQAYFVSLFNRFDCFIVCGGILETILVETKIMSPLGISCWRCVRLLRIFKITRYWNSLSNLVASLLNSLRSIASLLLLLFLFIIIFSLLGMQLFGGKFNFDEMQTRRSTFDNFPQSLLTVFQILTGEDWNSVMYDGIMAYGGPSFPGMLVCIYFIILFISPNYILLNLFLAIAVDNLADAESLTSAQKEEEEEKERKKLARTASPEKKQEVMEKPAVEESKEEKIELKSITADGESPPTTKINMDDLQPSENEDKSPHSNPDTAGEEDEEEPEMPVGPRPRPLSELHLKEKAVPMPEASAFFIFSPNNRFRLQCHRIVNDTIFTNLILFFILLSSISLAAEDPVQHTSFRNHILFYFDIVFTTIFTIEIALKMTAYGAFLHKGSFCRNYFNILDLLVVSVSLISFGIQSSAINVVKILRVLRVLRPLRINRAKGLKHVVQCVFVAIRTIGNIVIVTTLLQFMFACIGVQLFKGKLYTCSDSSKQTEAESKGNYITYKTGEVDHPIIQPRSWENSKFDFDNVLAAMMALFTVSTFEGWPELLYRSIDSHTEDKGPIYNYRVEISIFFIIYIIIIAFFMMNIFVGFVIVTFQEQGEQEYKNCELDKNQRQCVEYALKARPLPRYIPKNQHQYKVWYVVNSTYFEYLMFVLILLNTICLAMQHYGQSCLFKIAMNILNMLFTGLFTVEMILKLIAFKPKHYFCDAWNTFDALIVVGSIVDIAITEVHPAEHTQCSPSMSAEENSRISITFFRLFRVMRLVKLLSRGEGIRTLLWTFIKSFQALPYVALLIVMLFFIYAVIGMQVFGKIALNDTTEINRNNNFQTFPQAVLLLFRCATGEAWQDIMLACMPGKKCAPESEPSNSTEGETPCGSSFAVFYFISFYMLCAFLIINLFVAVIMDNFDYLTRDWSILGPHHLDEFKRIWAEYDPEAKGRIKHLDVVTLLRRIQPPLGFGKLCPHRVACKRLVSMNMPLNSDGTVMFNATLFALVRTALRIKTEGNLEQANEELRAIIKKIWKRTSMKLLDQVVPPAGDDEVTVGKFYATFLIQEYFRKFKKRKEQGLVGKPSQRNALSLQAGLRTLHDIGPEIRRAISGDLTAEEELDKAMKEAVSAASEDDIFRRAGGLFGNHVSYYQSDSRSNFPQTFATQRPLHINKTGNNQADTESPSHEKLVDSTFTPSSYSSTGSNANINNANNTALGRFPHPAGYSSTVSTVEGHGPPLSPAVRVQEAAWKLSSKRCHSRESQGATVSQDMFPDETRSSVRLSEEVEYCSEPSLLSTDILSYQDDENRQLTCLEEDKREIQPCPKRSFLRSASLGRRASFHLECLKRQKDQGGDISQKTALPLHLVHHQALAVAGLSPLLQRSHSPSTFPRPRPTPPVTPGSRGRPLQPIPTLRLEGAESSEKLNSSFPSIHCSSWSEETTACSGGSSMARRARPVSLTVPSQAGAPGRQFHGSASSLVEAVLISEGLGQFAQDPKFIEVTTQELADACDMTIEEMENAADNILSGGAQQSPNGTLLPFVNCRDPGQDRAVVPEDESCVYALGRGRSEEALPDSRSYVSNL
Sequence (P54290 25-944 partner limits assumed, other chains not shown): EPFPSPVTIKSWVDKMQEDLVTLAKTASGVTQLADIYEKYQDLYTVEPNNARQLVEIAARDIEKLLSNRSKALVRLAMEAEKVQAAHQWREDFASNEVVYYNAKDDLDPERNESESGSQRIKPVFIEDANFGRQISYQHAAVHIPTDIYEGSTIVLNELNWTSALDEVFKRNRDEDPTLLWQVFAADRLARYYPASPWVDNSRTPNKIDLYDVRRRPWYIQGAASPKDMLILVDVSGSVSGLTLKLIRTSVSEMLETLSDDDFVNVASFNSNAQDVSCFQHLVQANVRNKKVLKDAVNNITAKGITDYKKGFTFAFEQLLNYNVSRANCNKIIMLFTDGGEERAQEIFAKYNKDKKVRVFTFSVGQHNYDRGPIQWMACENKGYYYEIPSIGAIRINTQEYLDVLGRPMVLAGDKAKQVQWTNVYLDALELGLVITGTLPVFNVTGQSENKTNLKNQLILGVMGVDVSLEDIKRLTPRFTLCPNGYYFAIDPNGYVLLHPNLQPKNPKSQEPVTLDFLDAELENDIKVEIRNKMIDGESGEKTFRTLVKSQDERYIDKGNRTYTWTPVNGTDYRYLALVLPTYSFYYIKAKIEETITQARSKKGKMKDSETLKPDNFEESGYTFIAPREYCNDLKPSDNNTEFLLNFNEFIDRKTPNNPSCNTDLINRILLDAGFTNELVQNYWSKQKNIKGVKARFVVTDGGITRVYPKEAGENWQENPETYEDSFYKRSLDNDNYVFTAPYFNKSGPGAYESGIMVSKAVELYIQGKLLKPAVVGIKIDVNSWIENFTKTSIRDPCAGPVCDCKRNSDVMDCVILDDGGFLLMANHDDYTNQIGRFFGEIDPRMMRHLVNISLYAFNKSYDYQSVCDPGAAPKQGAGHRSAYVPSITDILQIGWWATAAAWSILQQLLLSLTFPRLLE
Sequence (P54290 945-1091 partner limits assumed, other chains not shown): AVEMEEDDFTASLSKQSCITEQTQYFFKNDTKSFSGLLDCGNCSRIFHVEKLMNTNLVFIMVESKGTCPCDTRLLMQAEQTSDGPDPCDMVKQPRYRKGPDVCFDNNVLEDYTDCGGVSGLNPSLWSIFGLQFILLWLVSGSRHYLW
PROTOCOL SUMMARY: Competition binding of [3H]nitrendipine to membrane fragments of rat cardiac muscle
MEASUREMENT SETUP: [3H]nitrendipine, rat cardiac muscle membranes; SEM and n in lines below; read-out: pKi Ca (converted)
Counter-ions that a name gives are not always drawn.
TEST READOUT: Ki (µM)
Reply numerically in µM, unit not repeated.

// below: answered molecules
MOLECULE	MEASURED ON	Ki (µM)
CC1=C(C(N)=O)C(c2ccc([N+](=O)[O-])cc2)C(C(=O)NCCN2CCC(c3ccccc3)(c3ccccc3)CC2)=C(C)N1 (stereo not drawn) [Example 54, hydrochloride hydrate]	L-type calcium channel (Rattus norvegicus)	58.9
COC(=O)C1=C(C)NC(C)=C(C(=O)OCCCN(C)C)C1c1ccc([N+](=O)[O-])cc1.Cl (stereo not drawn) [Example 44, hydrochloride]	L-type calcium channel (Rattus norvegicus)	16.6

Okay, now this molecule:
Qu. # lookup: Ki of COC(=O)C1=C(C)NC(C)=C(C(=O)NCCCN2CCC(c3ccccc3)(c3ccccc3)CC2)C1c1cc[n+]([O-])cc1 (stereo not drawn)
Ans. 19.1

---

Each entry below carries its recorded pKi.
MEASURED ON: α1B Human Adrenergic Receptor (Homo sapiens, UniProt P35368)
Construct: The entire coding region of α1B (1563 bp); expressed in transfected cells
Sequence (P35368 1-520): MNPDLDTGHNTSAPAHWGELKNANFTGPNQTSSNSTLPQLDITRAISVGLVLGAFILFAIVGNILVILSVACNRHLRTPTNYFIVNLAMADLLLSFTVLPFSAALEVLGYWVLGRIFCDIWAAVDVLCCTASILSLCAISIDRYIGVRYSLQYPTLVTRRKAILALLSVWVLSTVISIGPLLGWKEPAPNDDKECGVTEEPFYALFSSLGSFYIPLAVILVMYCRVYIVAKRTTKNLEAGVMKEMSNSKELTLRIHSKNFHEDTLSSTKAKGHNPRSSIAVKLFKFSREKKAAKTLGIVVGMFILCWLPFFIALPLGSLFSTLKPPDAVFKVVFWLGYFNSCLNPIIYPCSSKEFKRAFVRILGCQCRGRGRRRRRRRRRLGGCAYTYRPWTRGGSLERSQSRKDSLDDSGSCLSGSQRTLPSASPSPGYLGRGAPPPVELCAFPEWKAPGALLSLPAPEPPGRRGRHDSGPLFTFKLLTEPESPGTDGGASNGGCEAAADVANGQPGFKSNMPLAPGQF
PROTOCOL SUMMARY: Radioligand binding, [3H]prazosin, cloned human α1B adrenergic receptor
MEASUREMENT SETUP: pKi alpha-1 1b, cloned human receptor in LM(tk-) cell membranes, SEM and n in lines below
Structures can show the parent of a compound that is named as a salt.
Interpret pKi as the negative base-10 log of the concentration measured in mol/L.

// below: answered compounds
COMPOUND	MEASURED RESULT
CC1=C(C(N)=O)C(c2cccc([N+](=O)[O-])c2)C(C(=O)NCCCN2CCC(c3ccccc3)(c3ccccc3)CC2)=C(C)N1 (stereo not drawn)	6.37
COC(=O)C1=C(C)NC(C)=C(C(=O)NCCCN2CCC(c3ccccc3)(c3ccccc3)CC2)C1c1ccc([N+](=O)[O-])c(OC)c1 (stereo not drawn)	6.85
CC1=C(C(=O)NCCCN2CCC(c3ccccc3)(c3ccccc3)CC2)C(c2ccc([N+](=O)[O-])cc2)C2=C(CCCC2=O)N1 (stereo not drawn)	6.56
COC(=O)C1=C(C)NC(c2ccoc2)=C(C(=O)NCCCN2CCC(c3ccccc3)(c3ccccc3)CC2)C1c1ccc([N+](=O)[O-])cc1 (stereo not drawn) [Example 43, hydrochloride salt]	6.74
CCC1=C(C(=O)NCCCN2CCC(c3ccccc3)(c3ccccc3)CC2)C(c2ccc([N+](=O)[O-])cc2)C(C(=O)OCc2ccccc2)=C(C)N1 (stereo not drawn) [Example 4, Hydrochloride Salt, Hydrate]	6.89
CCC1=C(C(=O)NCCCN2CCC(c3ccccc3)(c3ccccc3)CC2)C(c2ccc([N+](=O)[O-])cc2)C(C(N)=O)=C(C)N1 (stereo not drawn) [Example 81, hydrochloride]	6.62
COC(=O)C1=C(C)NC(C)=C(C(=O)NCCCN2CCC(c3ccccc3)(c3ccccc3)CC2)C1c1cccnc1 (stereo not drawn)	5.58
COC(=O)C1=C(C)NC(C)=C(C(=O)NCCCN2CCC(c3ccccc3)(c3ccccc3)CC2)C1c1cc[n+]([O-])cc1 (stereo not drawn)	6.47
CC1=C(C(N)=O)C(c2ccc([N+](=O)[O-])cc2)C(C(=O)NCCN2CCC(c3ccccc3)(c3ccccc3)CC2)=C(C)N1 (stereo not drawn) [Example 54, hydrochloride hydrate]	6.76
COC(=O)C1=C(C)NC(C)=C(C(=O)NCCCN2CCC(c3ccccc3)(c3ccccc3)CC2)C1c1ccoc1 (stereo not drawn)	6.67

Qu. # lookup: pKi of COC(=O)C1=C(C)NC(C)=C(C(=O)NCCCN2CCC(c3ccccc3)(c3ccccc3)CC2)C1c1ccc([N+](=O)[O-])c(C)c1 (stereo not drawn)
Ans. 6.62

Qu. # lookup: pKi of CC1=C(C(=O)NCCCN2CCC(c3ccccc3)(c3ccccc3)CC2)C(c2ccc([N+](=O)[O-])cc2)c2c([nH]c(=O)[nH]c2=O)N1 (stereo not drawn)
Ans. 6.45

Reference for the values: patent US6608086B2
